- EXPERIMENTAL TARGET: JAK1 (Homo sapiens)
- Sequence (P23458 whole entry, species assumed): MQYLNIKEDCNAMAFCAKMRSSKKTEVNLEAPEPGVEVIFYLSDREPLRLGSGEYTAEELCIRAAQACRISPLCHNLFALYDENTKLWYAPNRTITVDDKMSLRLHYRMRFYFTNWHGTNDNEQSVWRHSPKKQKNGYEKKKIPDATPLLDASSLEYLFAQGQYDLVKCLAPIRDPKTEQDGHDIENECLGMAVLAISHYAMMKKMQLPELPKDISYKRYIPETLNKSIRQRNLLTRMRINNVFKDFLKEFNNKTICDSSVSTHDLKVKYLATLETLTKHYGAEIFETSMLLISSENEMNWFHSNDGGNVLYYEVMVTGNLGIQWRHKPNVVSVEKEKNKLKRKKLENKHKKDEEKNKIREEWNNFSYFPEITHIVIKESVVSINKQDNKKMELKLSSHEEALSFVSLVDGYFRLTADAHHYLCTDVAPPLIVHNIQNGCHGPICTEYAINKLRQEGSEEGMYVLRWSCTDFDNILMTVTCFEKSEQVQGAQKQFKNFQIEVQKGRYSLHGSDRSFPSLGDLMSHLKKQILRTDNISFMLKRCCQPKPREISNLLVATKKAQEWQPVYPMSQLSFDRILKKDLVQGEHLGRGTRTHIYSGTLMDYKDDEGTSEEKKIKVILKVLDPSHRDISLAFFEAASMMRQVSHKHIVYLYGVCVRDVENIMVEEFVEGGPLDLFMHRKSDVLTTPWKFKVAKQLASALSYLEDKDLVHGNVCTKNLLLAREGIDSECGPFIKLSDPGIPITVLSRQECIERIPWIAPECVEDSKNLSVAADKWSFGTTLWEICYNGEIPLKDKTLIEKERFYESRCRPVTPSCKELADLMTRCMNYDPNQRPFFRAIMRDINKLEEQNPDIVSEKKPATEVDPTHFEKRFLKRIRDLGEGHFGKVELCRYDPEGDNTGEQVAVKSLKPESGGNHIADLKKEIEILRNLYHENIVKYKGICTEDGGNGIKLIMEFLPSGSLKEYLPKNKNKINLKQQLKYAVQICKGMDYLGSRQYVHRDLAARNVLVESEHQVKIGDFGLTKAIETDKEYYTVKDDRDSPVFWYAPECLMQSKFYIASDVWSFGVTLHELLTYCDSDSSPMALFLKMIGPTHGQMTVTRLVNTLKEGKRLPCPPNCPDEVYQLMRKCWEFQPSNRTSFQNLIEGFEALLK
pIC50: −log10 of the molar value.
EXPERIMENTAL ENDPOINT: pIC50

Short answer on JAK1 (Homo sapiens) for CN(c1ncnc2[nH]ccc12)C1CC2(C1)CN(C(=O)c1ccc(C#N)cc1Cl)C2 [Compound 37] , pIC50: 7.00 to 8.00

Tested on JAK1 (Homo sapiens): COc1ccc(NC(=O)N2CCC3(CCC(N(C)c4ncnc5[nH]ccc45)CC3)CC2)nc1 [Compound 130] . Observed pIC50: 7.00 to 8.00

Entry CN(c1ncnc2[nH]ccc12)C1CCC2(CC1)CCN(C(=O)COc1cccc(C#N)c1)CC2 [Compound 116] , JAK1 (Homo sapiens) data, pIC50 value: 7.00 to 8.00

Short answer on JAK1 (Homo sapiens) for C#Cc1ccc(C(=O)N2CC3(CC(N(C)c4ncnc5[nH]ccc45)C3)C2)cc1C [Compound 40] , pIC50: ≥ 8.00

JAK1 (Homo sapiens) pIC50 of COc1ccc(C(=O)N2CC3(CC(N(C)c4ncnc5[nH]ccc45)C3)C2)cc1 [Compound 24] is 7.00 to 8.00

====

# Lookup of reported pIC50 keyed by entry
- EXPERIMENTAL TARGET: JAK3 (Homo sapiens, UniProt P52333)
- Sequence (P52333 1-1124): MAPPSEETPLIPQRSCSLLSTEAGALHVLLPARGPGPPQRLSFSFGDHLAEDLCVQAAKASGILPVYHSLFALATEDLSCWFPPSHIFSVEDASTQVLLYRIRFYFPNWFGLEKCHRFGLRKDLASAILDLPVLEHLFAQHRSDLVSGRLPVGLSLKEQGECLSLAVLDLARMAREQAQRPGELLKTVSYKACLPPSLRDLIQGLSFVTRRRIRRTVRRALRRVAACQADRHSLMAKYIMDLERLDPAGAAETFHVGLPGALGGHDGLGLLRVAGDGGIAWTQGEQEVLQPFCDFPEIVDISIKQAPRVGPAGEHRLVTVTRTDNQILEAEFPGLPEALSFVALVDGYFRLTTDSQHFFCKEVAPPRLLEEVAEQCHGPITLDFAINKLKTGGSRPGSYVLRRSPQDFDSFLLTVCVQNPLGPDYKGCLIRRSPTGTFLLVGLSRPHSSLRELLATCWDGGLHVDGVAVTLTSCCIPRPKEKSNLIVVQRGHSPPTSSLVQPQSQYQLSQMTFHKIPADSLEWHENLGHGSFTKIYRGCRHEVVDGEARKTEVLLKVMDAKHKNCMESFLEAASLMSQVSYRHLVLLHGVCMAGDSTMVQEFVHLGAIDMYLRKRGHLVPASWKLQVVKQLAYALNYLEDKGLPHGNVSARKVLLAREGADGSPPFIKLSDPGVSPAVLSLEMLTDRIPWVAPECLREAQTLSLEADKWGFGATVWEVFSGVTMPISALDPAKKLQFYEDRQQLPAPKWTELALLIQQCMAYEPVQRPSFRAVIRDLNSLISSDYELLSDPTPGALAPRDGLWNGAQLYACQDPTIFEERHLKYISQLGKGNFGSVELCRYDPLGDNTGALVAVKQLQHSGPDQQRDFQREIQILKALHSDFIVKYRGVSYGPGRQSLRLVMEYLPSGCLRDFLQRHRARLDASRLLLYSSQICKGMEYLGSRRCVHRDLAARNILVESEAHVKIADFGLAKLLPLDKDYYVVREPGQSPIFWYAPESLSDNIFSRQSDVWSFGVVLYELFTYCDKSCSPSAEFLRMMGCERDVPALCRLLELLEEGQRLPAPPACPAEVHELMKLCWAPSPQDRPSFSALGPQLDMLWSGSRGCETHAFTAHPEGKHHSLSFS
pIC50: −log10 of the molar value.

The recorded pIC50 for `CN(c1ncnc2[nH]ccc12)C1CCC2(CC1)CCN(CC(F)(F)F)CC2` is 6.00 to 7.00

The recorded pIC50 for entry `CN(c1ncnc2[nH]ccc12)C1CC2(C1)CN(C(=O)c1ccn(C)n1)C2` equals ≤ 5.00

// recorded pIC50 for `CN(c1ncnc2[nH]ccc12)C1CCC2(CC1)CCN(C(=O)Cc1ccc(C#N)cc1)CC2` : 6.00 to 7.00

Consider `CN(c1ncnc2[nH]ccc12)C1CC2(C1)CN(C(=O)c1cc[nH]n1)C2` . Its measured pIC50 is ≤ 5.00
